assay: Study on pharmacokinetic properties in rats after intravenous injection; conditions: SD, rat, in vivo, 5 mg/kg
Numbered stars: 1 amine (or outer) side, 2 acyl side, 3 side chain; on linkers, the order of the positions; unused ones are H or OH. Bridge positions count the residues as written; N and C are the ends. Square brackets hold non-standard residues; d marks the D form. Peptide text beside a SMILES is read from it. * marks the point of attachment. Orn(4R-OH,5R-OCH2CH2NMe3+) = C[N+](C)(C)CCO[C@@H](N[*:3])[C@H](O)C[C@H](N[*:1])C(=O)[*:2]; pTerphenylCO(4''-OnC5H11) = CCCCCOc1ccc(-c2ccc(-c3ccc(C(=O)*)cc3)cc2)cc1; hTyr(3S-OH,4S-OH) = N[C@H](C(=O)O)[C@H](O)[C@@H](O)c1ccc(O)cc1; Pro(3S-OH,4S-Me) = C[C@H]1CN[C@H](C(=O)O)[C@H]1O; Hyp = O=C(O)[C@@H]1C[C@@H](O)CN1
Measure: MRT last (h)
Report the figure in h without appending any unit label.

Prompt: I'd like to know its MRT last. The compound in question is CCCCCOc1ccc(-c2ccc(-c3ccc(C(=O)N[C@H]4C[C@@H](O)[C@@H](OCC[N+](C)(C)C)NC(=O)[C@@H]5[C@@H](O)[C@@H](C)CN5C(=O)[C@H]([C@@H](C)O)NC(=O)[C@H]([C@H](O)[C@@H](O)c5ccc(O)cc5)NC(=O)[C@@H]5C[C@@H](O)CN5C(=O)[C@H]([C@@H](C)O)NC4=O)cc3)cc2)cc1 [Rezafungin, rezafungin, reference compound] ({pTerphenylCO(4''-OnC5H11)}-[Orn(4R-OH,5R-OCH2CH2NMe3+)]T[Hyp][hTyr(3S-OH,4S-OH)]T[Pro(3S-OH,4S-Me)]; lactam 1-C)
Response: 20.2

###

experiment: Study on pharmacokinetic properties in rats after intravenous injection; settings: SD, rat, in vivo, 5 mg/kg
Numbered stars: 1 amine (or outer) side, 2 acyl side, 3 side chain; on linkers, the order of the positions; unused ones are H or OH. Bridge positions count the residues as written; N and C are the ends. Square brackets hold non-standard residues; d marks the D form. Peptide text beside a SMILES is read from it. * marks the point of attachment. Orn(4R-OH,5R-OCH2CH2NMe3+) = C[N+](C)(C)CCO[C@@H](N[*:3])[C@H](O)C[C@H](N[*:1])C(=O)[*:2]; pTerphenylCO(4''-OnC5H11) = CCCCCOc1ccc(-c2ccc(-c3ccc(C(=O)*)cc3)cc2)cc1; hTyr(3S-OH,4S-OH) = N[C@H](C(=O)O)[C@H](O)[C@@H](O)c1ccc(O)cc1; Pro(3S-OH,4S-Me) = C[C@H]1CN[C@H](C(=O)O)[C@H]1O; Hyp = O=C(O)[C@@H]1C[C@@H](O)CN1
Measure: half-life (h)
Report the figure in h without appending any unit label.

Prompt: I'd like to know its half-life. The molecule in question is CCCCCOc1ccc(-c2ccc(-c3ccc(C(=O)N[C@H]4C[C@@H](O)[C@@H](OCC[N+](C)(C)C)NC(=O)[C@@H]5[C@@H](O)[C@@H](C)CN5C(=O)[C@H]([C@@H](C)O)NC(=O)[C@H]([C@H](O)[C@@H](O)c5ccc(O)cc5)NC(=O)[C@@H]5C[C@@H](O)CN5C(=O)[C@H]([C@@H](C)O)NC4=O)cc3)cc2)cc1 [Rezafungin, rezafungin, reference compound] ({pTerphenylCO(4''-OnC5H11)}-[Orn(4R-OH,5R-OCH2CH2NMe3+)]T[Hyp][hTyr(3S-OH,4S-OH)]T[Pro(3S-OH,4S-Me)]; lactam 1-C)
Response: 27.5
